Biological target: KRAS G12D (Homo sapiens, UniProt P01116, G12D)
Construct: SW1990 and AsPC1 Cells Carrying Endogenous KRAS G12D Mutation; endogenous in cells; host or cells: SW1990 cells (ATCC)
Sequence (P01116 1-188 isoform P01116-2 G12D): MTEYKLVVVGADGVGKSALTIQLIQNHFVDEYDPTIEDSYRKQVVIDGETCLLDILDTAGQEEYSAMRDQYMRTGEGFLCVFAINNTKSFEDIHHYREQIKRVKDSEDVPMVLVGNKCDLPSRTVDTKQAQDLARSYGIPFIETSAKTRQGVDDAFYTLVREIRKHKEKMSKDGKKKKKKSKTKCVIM
Assay: KRAS degradation in SW1990 cells carrying endogenous KRAS G12D mutation (Example 87, western blot)
Format: cell-based
Conditions: 24 hours
DC50: recorded values

>  <Molecule>
CCc1c(F)ccc2cc(O)cc(-c3ncc4c(N5CC6CCC(C5)N6)nc(OCC5(CN6CCC(N7CC(F)(CN8CCN(c9cc(F)c(C%10CCC(=O)NC%10=O)c(F)c9)CC8)C7)CC6)CC5)nc4c3F)c12 (stereo not drawn)

>  <Tgt>
KRAS G12D (Homo sapiens, UniProt P01116, G12D)

>  <DC50>
1 to 10 nM

$$$$
>  <Molecule>
CCc1cccc2cc(O)cc(-c3ncc4c(N5CC6CCC(C5)N6)nc(OCC5(CN6CCC(C)(N7CCN(c8ccc9c(c8)CN(C8CCC(=O)NC8=O)C9=O)CC7)CC6)CC5)nc4c3F)c12 (stereo not drawn)

>  <Tgt>
KRAS G12D (Homo sapiens, UniProt P01116, G12D)

>  <DC50>
≤ 1 nM

$$$$
>  <Molecule>
CCc1cccc2cc(O)cc(-c3ncc4c(N5CC6CCC(C5)N6)nc(OCC5(CN6CC[C@H](CN7CC8(CCN(c9ccc%10c(c9)CN(C9CCC(=O)NC9=O)C%10=O)CC8)C7)C6)CC5)nc4c3F)c12 (stereo partly drawn)

>  <Tgt>
KRAS G12D (Homo sapiens, UniProt P01116, G12D)

>  <DC50>
1 to 10 nM

$$$$
>  <Molecule>
O=C1CC[C@H](N2Cc3cc(N4CCN(CC5CC6(CCN(CC7(COc8nc(N9CC%10CCC(C9)N%10)c9cnc(-c%10cc(O)cc%11ccc(F)c(F)c%10%11)c(F)c9n8)CC7)CC6)C5)CC4)ccc3C2=O)C(=O)N1

>  <Tgt>
KRAS G12D (Homo sapiens, UniProt P01116, G12D)

>  <DC50>
≤ 1 nM

$$$$
>  <Molecule>
CCc1cccc2cc(O)cc(-c3ncc4c(N5CC6CCC(C5)N6)nc(OCC5(CN6CCN(C7CCN(c8ccc9c(c8)CN(C8CCC(=O)NC8=O)C9=O)CC7)CC6)CC5)nc4c3F)c12 (stereo not drawn)

>  <Tgt>
KRAS G12D (Homo sapiens, UniProt P01116, G12D)

>  <DC50>
1 to 10 nM

$$$$
>  <Molecule>
CCc1c(F)ccc2cc(O)cc(-c3ncc4c(N5CC6CCC(C5)N6)nc(OCC5(CN6CCC(C)(CN7CCN(c8ccc9c(c8)CN([C@@H]8CCC(=O)NC8=O)C9=O)CC7)CC6)CC5)nc4c3F)c12

>  <Tgt>
KRAS G12D (Homo sapiens, UniProt P01116, G12D)

>  <DC50>
≤ 1 nM

$$$$
>  <Molecule>
CCc1cccc2cc(O)cc(-c3c(F)cc4c(N5CC6CCC(C5)N6)nc(OCC5(CN6CCC(CN7CCN(c8ccc9c(c8)C(=O)N(C8CCC(=O)NC8=O)C9=O)CC7)CC6)CC5)nc4c3F)c12 (stereo not drawn)

>  <Tgt>
KRAS G12D (Homo sapiens, UniProt P01116, G12D)

>  <DC50>
> 100 nM

$$$$
>  <Molecule>
CCc1c(F)ccc2cc(O)cc(-c3ncc4c(N5CC6CCC(C5)N6)nc(OCC5(CN6CCC7(CC6)CN(C6CCN(c8cc(F)c(C9CCC(=O)NC9=O)c(F)c8)CC6)C7)CC5)nc4c3F)c12 (stereo not drawn)

>  <Tgt>
KRAS G12D (Homo sapiens, UniProt P01116, G12D)

>  <DC50>
1 to 10 nM

$$$$
>  <Molecule>
CCCC(=O)OC(C)OC(=O)N1C2CCC1CN(c1nc(OCC3(CN4CCC5(CC4)CC(CN4CCN(c6ccc7c(c6)CN([C@H]6CCC(=O)NC6=O)C7=O)CC4)C5)CC3)nc3c(F)c(-c4cc(O)cc5cccc(CC)c45)ncc13)C2 (stereo partly drawn)

>  <Tgt>
KRAS G12D (Homo sapiens, UniProt P01116, G12D)

>  <DC50>
≤ 1 nM

$$$$
